- Tested on: MDA-MB-231
- assay_name: NCI tumour cell line growth inhibition, 48 h
Calls of active or inactive are those of the source. Cut-off read from the data, not from the text of the source: active = GI50 up to about 1.1 µM and inactive = higher.
Catalogue of GI50 values

>  <chemical_smiles>
Cn1cc(NC(=O)Nc2cc(C(=O)Nc3cc(C(=O)Nc4ccc5cc(S(=O)(=O)O)cc(S(=O)(=O)O)c5c4)n(C)c3)n(C)c2)cc1C(=O)Nc1cc(C(=O)Nc2ccc3cc(S(=O)(=O)O)cc(S(=O)(=O)O)c3c2)n(C)c1

>  <GI50>
> 100 µM (inactive)

$$$$
>  <chemical_smiles>
CC1=NC(C)(C)[N+]([O-])=C1

>  <GI50>
> 10 µM (inactive)

$$$$
>  <chemical_smiles>
Cn1c(O)c(C2=Nc3ccccc3C2=O)c2ccccc21

>  <GI50>
> 100 µM (inactive)

$$$$
>  <chemical_smiles>
O=C1Oc2ccccc2N/C1=C/C(=O)c1ccc([N+](=O)[O-])cc1

>  <GI50>
> 100 µM (inactive)

$$$$
>  <chemical_smiles>
Cc1ccc2nc(-c3ccc(C(C)(C)C)cc3)oc(=O)c2c1

>  <GI50>
20.6 µM (inactive)

$$$$

----------
- System: NCI-H522
- assay_name: NCI tumour cell line growth inhibition, 48 h
The source made the active and inactive calls. Rule as the data show it: active = GI50 up to about 1.1 µM and inactive = higher.
Labels: active, inactive

>  <compound>
O=C(/C(=N/Nc1ccccc1)c1ccc([N+](=O)[O-])cc1)c1ccc([N+](=O)[O-])cc1

>  <label_class>
inactive

$$$$
>  <compound>
O=C1OC2(C(F)(F)F)Oc3ccccc3CN2C12CCCCC2 (stereo not given)

>  <label_class>
inactive

$$$$
>  <compound>
Cc1ccc(/N=N/c2c(O)ccc3cc(S(=O)(=O)O)ccc23)cc1

>  <label_class>
inactive

$$$$
>  <compound>
CCC(C#N)NCc1cccc(CNC(C#N)CC)c1 (stereo not given)

>  <label_class>
inactive

$$$$
>  <compound>
C[n+]1c(/C=C/c2ccc(O)c3ncccc23)[se]c2ccccc21

>  <label_class>
inactive

$$$$
>  <compound>
Cc1noc2nnn(-c3ccc(Cl)cc3)c(=O)c12

>  <label_class>
active

$$$$
>  <compound>
CC[N+](CC)(CC)/C(=N\S(=O)(=O)c1ccc(Cl)cc1)[N-]S(=O)(=O)c1cc(C)c(Cl)cc1S

>  <label_class>
inactive

$$$$
>  <compound>
COc1ccc(OC)c2sc(N3C(=O)/C(=C/c4cccc([N+](=O)[O-])c4)N=C3c3ccccc3)nc12

>  <label_class>
inactive

$$$$
>  <compound>
COc1cc(/C=C2\N=C(c3ccccc3)N(c3ccc(S(=O)(=O)Nc4nccs4)cc3)C2=O)ccc1O

>  <label_class>
inactive

$$$$
>  <compound>
C=C1C[C@]23C[C@@]1(O)CC[C@H]2[C@@]12C=C[C@H](O)[C@@](C)(C(=O)O1)[C@H]2[C@@H]3C(=O)O

>  <label_class>
inactive

$$$$
>  <compound>
C1=CC(=NN=P(c2ccccc2)(c2ccccc2)c2ccccc2)C=C1

>  <label_class>
inactive

$$$$
>  <compound>
COc1ccc(/N=N/N2CCCC2)cc1

>  <label_class>
inactive

$$$$
>  <compound>
C[C@]12CCC3c4ccc(OC(=O)c5ccccc5)cc4CC[C@H]3C1CC[C@@H]2OC(=O)C12OC1CCC2=O (stereo not given in full)

>  <label_class>
inactive

$$$$
>  <compound>
CCOC(=O)c1sc2nc(SC)nc3c2c1NC(=O)CN3c1ccc(F)cc1

>  <label_class>
inactive

$$$$
>  <compound>
COc1cc2c(cc1OC)CC1c3cc(OC)c(OC)cc3CCN1CC2 (stereo not given)

>  <label_class>
inactive

$$$$
>  <compound>
COc1ccc(N2C(=O)C(C#N)=C(SC)C(C#N)C2=O)cc1 (stereo not given)

>  <label_class>
inactive

$$$$
>  <compound>
C=C1C(=O)OC2/C=C(/C)C3(O)OC(C)(CC(OC(=O)C(C)C)C12)CC3OC(C)=O (stereo not given)

>  <label_class>
inactive

$$$$
>  <compound>
COC(OC)c1cccc2c1C(=O)CCC1(O)c3ccccc3C1C2 (stereo not given)

>  <label_class>
inactive

$$$$
>  <compound>
CCOC(=O)C1=COC(C)(c2ccccc2)CC1=O (stereo not given)

>  <label_class>
inactive

$$$$
>  <compound>
N#CCCN(CCNc1ccccc1)C(=O)Nc1ccc(NC(=O)N(CCC#N)CCNc2ccccc2)cc1

>  <label_class>
inactive

$$$$
